- subject_of_test: S. aureus DNA Gyrase (Staphylococcus aureus, UniProt P0A0K8+P20831)
- Sequence (P20831 whole entry): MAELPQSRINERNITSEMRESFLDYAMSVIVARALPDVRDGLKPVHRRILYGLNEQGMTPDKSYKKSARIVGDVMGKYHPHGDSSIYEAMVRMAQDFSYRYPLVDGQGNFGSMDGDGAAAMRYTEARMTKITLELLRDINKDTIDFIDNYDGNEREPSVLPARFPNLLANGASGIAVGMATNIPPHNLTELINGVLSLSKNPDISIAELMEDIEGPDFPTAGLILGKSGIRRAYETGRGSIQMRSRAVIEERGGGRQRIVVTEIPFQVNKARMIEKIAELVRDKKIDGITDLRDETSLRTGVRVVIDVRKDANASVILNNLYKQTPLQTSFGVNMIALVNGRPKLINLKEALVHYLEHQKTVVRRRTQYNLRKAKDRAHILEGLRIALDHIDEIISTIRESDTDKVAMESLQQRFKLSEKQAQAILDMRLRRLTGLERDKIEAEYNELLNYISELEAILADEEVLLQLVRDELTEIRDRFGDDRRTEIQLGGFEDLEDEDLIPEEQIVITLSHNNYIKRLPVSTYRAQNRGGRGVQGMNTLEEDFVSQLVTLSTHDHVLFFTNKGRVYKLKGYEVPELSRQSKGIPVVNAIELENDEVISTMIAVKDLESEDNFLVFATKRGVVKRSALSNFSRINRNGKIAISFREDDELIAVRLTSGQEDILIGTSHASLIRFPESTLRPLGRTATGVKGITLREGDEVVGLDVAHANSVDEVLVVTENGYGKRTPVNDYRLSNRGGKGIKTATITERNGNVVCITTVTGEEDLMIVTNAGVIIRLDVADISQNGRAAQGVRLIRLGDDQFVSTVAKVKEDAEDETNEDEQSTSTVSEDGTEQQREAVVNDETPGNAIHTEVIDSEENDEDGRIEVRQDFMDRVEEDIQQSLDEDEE
- Sequence (P0A0K8 whole entry): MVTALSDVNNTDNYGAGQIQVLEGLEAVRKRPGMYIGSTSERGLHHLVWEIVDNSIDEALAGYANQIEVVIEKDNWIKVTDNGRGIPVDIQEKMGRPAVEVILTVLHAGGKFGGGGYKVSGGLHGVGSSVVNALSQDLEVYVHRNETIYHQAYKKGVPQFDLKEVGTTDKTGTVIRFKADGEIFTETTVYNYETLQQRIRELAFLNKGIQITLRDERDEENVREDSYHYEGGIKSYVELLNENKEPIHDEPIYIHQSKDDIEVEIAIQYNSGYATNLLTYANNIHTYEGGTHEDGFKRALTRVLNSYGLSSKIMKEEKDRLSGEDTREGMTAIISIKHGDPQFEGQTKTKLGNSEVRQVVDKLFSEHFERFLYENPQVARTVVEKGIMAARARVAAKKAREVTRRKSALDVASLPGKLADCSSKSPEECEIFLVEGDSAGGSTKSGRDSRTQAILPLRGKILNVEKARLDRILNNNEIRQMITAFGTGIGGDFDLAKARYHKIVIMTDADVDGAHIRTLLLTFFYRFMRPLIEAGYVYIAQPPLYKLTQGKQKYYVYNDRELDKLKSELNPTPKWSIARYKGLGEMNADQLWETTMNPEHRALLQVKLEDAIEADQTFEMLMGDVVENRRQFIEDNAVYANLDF
- test_details: Inhibition of bacterial DNA gyrase
- condition: dose of inhibitor suppressing 50% activity

- molecule: "Clc1ccc(-n2nnnc2NCc2ccco2)cc1Cl [Compound 11]"
  unit_abbrev: "µM"
  IC50: 2.9

====

- subject_of_test: S. aureus Topoisomerase IV (Staphylococcus aureus, UniProt P0C1S7+P0C1U9)
- Sequence (P0C1S7 whole entry): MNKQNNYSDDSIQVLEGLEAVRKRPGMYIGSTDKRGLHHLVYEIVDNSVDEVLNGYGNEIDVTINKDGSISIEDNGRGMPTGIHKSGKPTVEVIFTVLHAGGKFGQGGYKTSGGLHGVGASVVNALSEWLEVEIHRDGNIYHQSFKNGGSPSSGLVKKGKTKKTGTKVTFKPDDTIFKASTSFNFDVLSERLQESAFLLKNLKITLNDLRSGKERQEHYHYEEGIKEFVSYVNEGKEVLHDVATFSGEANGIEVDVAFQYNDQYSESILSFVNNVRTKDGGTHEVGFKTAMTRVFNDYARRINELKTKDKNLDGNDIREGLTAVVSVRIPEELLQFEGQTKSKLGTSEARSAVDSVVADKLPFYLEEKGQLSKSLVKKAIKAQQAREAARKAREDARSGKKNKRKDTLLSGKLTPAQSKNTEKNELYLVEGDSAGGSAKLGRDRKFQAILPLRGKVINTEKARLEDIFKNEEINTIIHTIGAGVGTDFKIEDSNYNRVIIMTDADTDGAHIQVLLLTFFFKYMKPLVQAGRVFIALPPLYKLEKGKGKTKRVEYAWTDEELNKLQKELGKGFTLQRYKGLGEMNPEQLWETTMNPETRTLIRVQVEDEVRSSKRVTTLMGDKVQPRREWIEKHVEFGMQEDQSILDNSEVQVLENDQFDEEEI
- Sequence (P0C1U9 whole entry): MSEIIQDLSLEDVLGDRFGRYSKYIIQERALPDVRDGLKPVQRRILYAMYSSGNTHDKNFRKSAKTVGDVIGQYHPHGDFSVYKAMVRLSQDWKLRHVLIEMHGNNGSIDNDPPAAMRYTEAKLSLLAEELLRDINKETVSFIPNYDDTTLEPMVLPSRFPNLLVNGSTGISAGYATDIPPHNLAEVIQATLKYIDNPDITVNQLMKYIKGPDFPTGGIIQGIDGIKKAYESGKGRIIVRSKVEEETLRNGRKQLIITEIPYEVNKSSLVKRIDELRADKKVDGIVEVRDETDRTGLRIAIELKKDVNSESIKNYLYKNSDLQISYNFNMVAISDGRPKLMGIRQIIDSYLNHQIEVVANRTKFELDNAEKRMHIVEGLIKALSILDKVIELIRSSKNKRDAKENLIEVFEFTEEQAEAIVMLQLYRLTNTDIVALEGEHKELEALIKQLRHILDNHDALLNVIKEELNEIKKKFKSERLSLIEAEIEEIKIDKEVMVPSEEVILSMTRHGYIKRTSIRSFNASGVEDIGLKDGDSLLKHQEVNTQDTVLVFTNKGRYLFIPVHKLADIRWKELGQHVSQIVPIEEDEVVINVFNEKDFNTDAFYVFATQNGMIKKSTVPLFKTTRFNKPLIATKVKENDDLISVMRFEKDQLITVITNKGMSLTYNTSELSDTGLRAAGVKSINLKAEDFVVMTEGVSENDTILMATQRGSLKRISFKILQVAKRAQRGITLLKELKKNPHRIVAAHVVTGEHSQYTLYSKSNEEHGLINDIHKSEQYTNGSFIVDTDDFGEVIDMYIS
- test_details: Inhibition of bacterial topoisomerase IV
- condition: dose of inhibitor suppressing 50% activity

- compound_structure: "Clc1ccc(-n2nnnc2NCc2ccco2)cc1Cl"
  IC50: "8.38 µM"
- compound_structure: "Cc1ccc(-n2nnnc2NCc2ccco2)cc1Cl"
  IC50: "41.1 µM"
